# test_protocol: Clearance in Sprague-Dawley rat at 5 mg/kg, iv measured up to 24 hrs by LC-MS/MS analysis
# Format: ADME, organism-based
# test_conditions: in vivo
value_type: clearance (mL/min/kg)
Please reply with the bare figure in mL/min/kg and do not write the unit itself.

// worked examples, clearance included
I am curious: what clearance value has been reported for COc1ccc(CNC(=O)Nc2ccc(Oc3ncnc4cc(N(C)C)ccc34)cc2)cc1 ?
16.5

I am curious: what clearance value has been reported for COc1ccc(CNC(=O)Nc2ccc(Oc3ncnc4cc(N(C)C)ccc34)cc2)cn1 ?
24.7

I am curious: what clearance value has been reported for CN(C)c1ccc2c(Oc3ccc(NC(=O)NCc4ccc(C(F)(F)F)nc4)cc3)ncnc2c1 ?
4.5

I am curious: what clearance value has been reported for Cc1ccc(CNC(=O)Nc2ccc(Oc3ncnc4cc(N(C)C)ccc34)cc2)cn1 ?
5.6

I am curious: what clearance value has been reported for COc1ccc(NC(=O)Nc2ccc(Oc3ncnc4cc(N(C)C)ccc34)cc2)cc1 ?
5.6

I am curious: what clearance value has been reported for CN(C)c1ccc2c(Oc3ccc(NC(=O)NCc4ccc(F)cc4)cc3)ncnc2c1 ?
12.2

As a next step, examine the compound that follows.
I am curious: what clearance value has been reported for CN(C)c1ccc2c(Oc3ccc(NC(=O)NCc4ccc(C(F)(F)F)nc4)cc3)ncnc2c1.CS(=O)(=O)O ?
8.9
